system: K4 kissing-loop RNA reporter; test: apparent KD of K4 kissing-loop reporter; higher = weaker reporter binding; settings: Eterna round: R107; input ligand: none;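 also: bound reporter read as fluorescence of individual clusters on recovered sequencing chips by microscopy, with normalized cluster intensities fitted with a binding model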
parameter measured: apparent KD of K4 kissing-loop reporter (nM)
One number for each entry, in nM.

Recorded apparent KD of K4 kissing-loop reporter, per entry:
# seq, test target, unit, apparent KD of K4 kissing-loop reporter
data = [
    ("AUUUAGACGAGUGAUGUUCGUGUUAAUACAGAGGAUAUGCGUGAUUGCAGAAGGCUGUAUUUAUAUAUGUUAUGUGGUUUUAAAA [whbob_Ex_FMNA__2th187]", "K4 kissing-loop RNA reporter", "nM", 87.2),
    ("UCCUAGGCUCGAAAGAGCCUAGGUAAGACUCAGGAUAUCUGGAAACAGAGAAGGGAGCUACUAGUGAUGUUAGGAAUUCCCUAAG", "K4 kissing-loop RNA reporter", "nM", 124),
    ("UGACUGGAUUGAAGGAGCGCUAAACUCCUAGUGAUGUUAGGGAAACAAGACAAAGUCUUGAGGCAGGUAGGUCGCAAUCUAGUCU [FiskerMod 4 - Jieux - Same State - Arginine B]", "K4 kissing-loop RNA reporter", "nM", 173),
    ("AUUUAUCCGUCCAGCUGAGUGAUGUUUAGCCGAGGACCGGUACGGCCGCCACUCGUAAGAACCUGUUACGUUGGCUCCUGUGGUG [theeternabot_exclusion_KL_Trp_A_49]", "K4 kissing-loop RNA reporter", "nM", 286),
    ("GUUUGGCGGACGGCCGCCACUCGGACGAGUCACAGUGAUGUUGUGGUUUGCCAGUCGACUUCAUCGAGGACCGGGUUUGUCGGGC [Exclusion Tryptophan B GF 20]", "K4 kissing-loop RNA reporter", "nM", 395),
    ("CUCGAGUGAUGUUCCUUUAUUUAUACAGAUACCAGUGAAUUUUAACACCCUUGGCAGCUGGUUGUAUCUUUGUUUUUUACACAUG [JR_Nu_ExcTheophyA_Sub025]", "K4 kissing-loop RNA reporter", "nM", 205),
]

Below are some sequences; for each one, tell me its apparent KD of K4 kissing-loop reporter.
1. GGUGAUGAGCACGAUACCAGCCUCGGAGCCAGUGAUGUUGGCCCAAUUUAAAAUAAGAUAGGCCCUUGGCAGCGUGACGAUGGCU [Rainle]
2. GGUAGCAUGGCGGCCGCCACUCUUCAUUAGUGAUGUUAAUGCCGAGUGCGCUAACUCCGCCAGGAGAGGACCGGGCCAUGCUACC

[711, 406]

Below are some sequences; for each one, tell me its apparent KD of K4 kissing-loop reporter.
1. UCUGGUAUAUCUGAUACCAGAGUAUAGUAUCAAUUGCAUAUGGAGUGAUGUUCCAUAUAACUCCCUUGGCAGCAGAUCUAUCUCU [Same State Theophylline B GF 25]
2. ACGAAGGAUGGAAGGAGCGCUCGUCAGUCCUGCGAGUGAUGUUCGUGGGUAAAUAUUCGCGAGCAGGUAGGUCGCCAUCUUGAGC [Soregeor]
3. UGACUGGACUGAAGGAGCGCUAAACUCCUAGUGAUGUUAGGAAAACGAGACAAAGUCUCGAAGCAGGUAGGUCGCAGUCUAGUCU

1. 325
2. 144
3. 177

Below are some sequences; for each one, tell me its apparent KD of K4 kissing-loop reporter.
1. AUGUUGAGCGGAAGGAGCGGCUGAGCCAGUGAUGUUGGUUAAUCCAAGUGAUGUUGGAAAAGCCAGGUAGGUCGCCGCUUUACGU [whbob_SS_Arginine_B_2t144]
2. UGAUAGCCAGUGAUGUUGGCAUAUACUGAAGGAGCGCGUGAAAACGCAGGUAGGUCGCAGUUCCUUGCCAAUUGAUCGAAAGAUC [#08 K4 Arginine A Exclusion]
3. GGAUCCACCAGUGAUGUUGGAGAAAACUCCAAGGAUAUGACGAAAGUCAGAAGGUGGUAGACUGGACAAAGUCCGGUCGGAUCCA [FmnA 23 #SwitchBubble #K4Early]
4. GUGUAAGUGAUGUUUGCACACACGUCGGAUACCAGAGACUUUAGCCUCCCUUGGCAGCCGCCGGCCAUAAGAGCAAGUCGAUUUA [theeternabot_sameState_KL_Theo_A_20]
5. AGACCACAAAGUGGUCAGUGUUCGCUGCAGCGAGGACCGGUACGGCCGCCACUCGCGAGUGAUGUUCGCGAGCGCAGCGAACACA [Omei KL Tryp A Exc A v5]
6. AAAUAGAUCAGUCAUCCAGUGAUGUUGGAAGGAGCGUGCGAAAGCACAGGUAGGUCGCCGAAAUAAAAGUGGCUGAUCAAAAUAA

1040
183
126
210
92.6
143

Below are some sequences; for each one, tell me its apparent KD of K4 kissing-loop reporter.
1. UAAUAAAUUCCAGCGAUAUCGCUCUUCGAAGGAGCGGACGAAAGUCCAGGUAGGUCGCGAAGAGUGAUGUUCUUUGCGGCGCUGG [Omei KL Arginine A Exc A v4]
2. CUAUGGAAACAUAGUGAUCGGGAAACCGAUACCAGUAUGGAAACAUACCCUUGGCAGCGGAAUGAUCAAACGGAGUGAUGUUCCG [Theophylline A K4 21]
3. GCUACCUAUGCAGGAUAUGGUAUUACGAGUGAUGUUCGAGGCGAAUAGAGUGAUGUUCUAUUUCCACCAGAAGGGCAUAGGUAGC
4. CACUUACGUAGUGAUGUUACGAUCUCUGAUACCAGACAACUCUAAGUCCCUUGGCAGCAGUCAUUUUGCUUAUAAUUUACUCAAA [JR_ExcTheophyA_Sub015]
5. GGUAGCAUGGCGGCCGCCACUCGCUAGUGAUGUUAGCGGGAUGAGACAAAGGACAUAACUUUAUCGAGGACCGGGCCAUGCUACC
6. UGGACCAAGGAGUGAUGUUCCAAAUGUGAUACCAGCCACGAAAGUGGCCCUUGGCAGCACUGCCAAAGGACGAAAGUCCGGUCCU [#SwitchBubble 10 #StaticStem #K4Early]

1: 262; 2: 648; 3: 125; 4: 786; 5: 75.8; 6: 382
